Just for reference, patent US20110086759A1 is where these values come from.

test system: Amaranthus retoflexus (AMARE); assay: Pre-emergence biological efficacy, glasshouse pot test; format: in vivo; conditions: Amaranthus retroflexus, 312 h; pre-emergence, 1,000 g/ha, evaluated after 13 days (100=total damage; 0=no damage); read-out: Percentage damage AMARE
Could you label it 1 (yes) if measured pest or weed control at 1000 g/ha is 70% or higher, and 0 (no) otherwise?

Query :: Is pest or weed control at 1000 g/ha at least 70%? Consider COC(=O)c1nc(C2CC2)nc(NCC(=O)OCc2ccccc2)c1Cl
Result :: 1 (yes)

Query :: Is pest or weed control at 1000 g/ha at least 70%? Consider COC(=O)c1nc(C2CC2)nc(NCCN2CCOCC2)c1Cl
Result :: 0 (no)

Query :: Is pest or weed control at 1000 g/ha at least 70%? Consider Cc1cccnc1CNc1nc(C2CC2)nc(C(=O)O)c1Cl
Result :: 1 (yes)

Query :: Is pest or weed control at 1000 g/ha at least 70%? Consider COC(=O)c1nc(C2CC2)nc(NC(Cc2c[nH]c3ccccc23)C(=O)OC)c1Cl (stereo not drawn)
Result :: 1 (yes)

Query :: Is pest or weed control at 1000 g/ha at least 70%? Consider COC(=O)c1nc(C2CC2)nc(N[C@@H](Cc2ccc(OC(C)(C)C)cc2)C(=O)OC)c1Cl [4-288 (S)]
Result :: 1 (yes)

Query :: Is pest or weed control at 1000 g/ha at least 70%? Consider COC(=O)c1nc(C2CC2)nc(NC(C)c2ccc(Br)cc2)c1Cl (stereo not drawn)
Result :: 0 (no)

Query :: Is pest or weed control at 1000 g/ha at least 70%? Consider COC(=O)c1nc(C2CC2)nc(NC2(c3cccc(C)n3)CC2)c1Cl
Result :: 0 (no)

Query :: Is pest or weed control at 1000 g/ha at least 70%? Consider COC(=O)c1nc(C2CC2)nc(NC(C)c2ccc(F)cc2)c1Cl (stereo not drawn)
Result :: 0 (no)
